Target: Pseudomonas aeruginosa LpxC enzyme (Pseudomonas aeruginosa (strain ATCC 15692 / DSM 22644 / CIP 104116 / JCM 14847 / LMG 12228 / 1C / PRS 101 / PAO1))
Assay: IC50 Assay, LpxC Enzyme from P. aeruginosa (PA LpxC Enzyme IC50)
Assay type: biochemical
Settings: P. aeruginosa LpxC enzyme; read-out: PA LpxC enzyeme IC50
Description: In order to assess the compounds biological activity, selected in-vitro assays were conducted on selected compounds. One of the assays measured the compounds ability to disrupt the synthesis of lipopolysaccharide, LPS, which is a component of the outer membrane of Gram-negative bacteria. Disruption of this synthesis is lethal to the bacteria. The assay determined the compound's ability to inhibit LpxC, which is the first enzyme in the biosynthetic pathway for LPS (measured as IC50). […]
assay-readout: pIC50
Numbers only, as −log10 of the molar value.

Here is how some compounds turned out for pIC50.
>  <compound>
C[C@@](CCc1ccc(-c2ccc(OCCN3CCOCC3)cc2)cc1)(C(=O)NO)S(C)(=O)=O

>  <pIC50>
9.29

$$$$
>  <compound>
CC(CCc1ccc(-c2ccc(C#N)c(Cl)c2)cc1)(C(=O)NO)S(C)(=O)=O (stereo not shown)

>  <pIC50>
9.48

$$$$
>  <compound>
CC(CCc1ccc(-c2ccc(N3CCN(S(C)(=O)=O)CC3)cc2)cc1)(C(=O)NO)S(C)(=O)=O (stereo not shown)

>  <pIC50>
8.97

$$$$
>  <compound>
CC(CCc1ccc(-c2ccc(F)c(Cl)c2)cc1)(C(=O)NO)S(C)(=O)=O (stereo not shown)

>  <pIC50>
9.90

$$$$
>  <compound>
CC(CCc1ccc(-c2ccc(N)nc2)c(F)c1)(C(=O)NO)S(C)(=O)=O (stereo not shown)

>  <pIC50>
7.63

$$$$
>  <compound>
C[C@@](CCc1ccc(-c2ccc(C(=O)CO)cc2)cc1)(C(=O)NO)S(C)(=O)=O

>  <pIC50>
9.62

$$$$
>  <compound>
CC(CCc1ccc(-c2ccc(C(=O)CO)cc2)cc1)(C(=O)NO)S(C)(=O)=O (stereo not shown)

>  <pIC50>
9.70

$$$$
>  <compound>
Cc1ccc(-c2ccc(CCC(C)(C(=O)NO)S(C)(=O)=O)cc2)cc1C (stereo not shown)

>  <pIC50>
9.62

$$$$

Below are 5 compounds. Give each one its pIC50.
1. CC(CCc1ccc(-c2ccc3nonc3c2)cc1)(C(=O)NO)S(C)(=O)=O (stereo not shown)
2. C[C@@](CCc1ccc(-c2cccnc2)cc1)(C(=O)NO)S(C)(=O)=O
3. COc1cccc(-c2ccc(CC[C@](C)(C(=O)NO)S(C)(=O)=O)cc2)c1
4. C[C@@](CCc1ccc(-c2ccc(C#N)cc2)cc1)(C(=O)NO)S(C)(=O)=O
5. Cc1cccc(-c2ccc(CCC(C)(C(=O)NO)S(C)(=O)=O)cc2)c1C (stereo not shown)

# output
1: 9.27; 2: 8.42; 3: 7.27; 4: 9.87; 5: 9.35

Respectfully, I request pIC50 for each entry included below.
1. Cc1cc(CCC(C)(C(=O)NO)S(C)(=O)=O)ccc1-c1ccc(F)cc1 (stereo not shown)
2. CC(CCc1ccc(C2=CCSCC2)cc1)(C(=O)NO)S(C)(=O)=O (stereo not shown)
3. COc1cc(CCC(C)(C(=O)NO)S(C)(=O)=O)ccc1-c1ccccc1 (stereo not shown)
4. CC(CCc1ccc(-c2ccc(N3CCNCC3)cc2)cc1)(C(=O)NO)S(C)(=O)=O (stereo not shown)
5. C[C@@](CCc1ccc(-c2ccc(N)nc2)cc1)(C(=O)NO)S(C)(=O)=O

# output
1: 8.60; 2: 9.49; 3: 7.84; 4: 8.21; 5: 7.74

Each of the following entries comes with a recorded value; kindly state pIC50 for each.
1. CC(CCc1ccc(-c2cccc(F)c2F)cc1)(C(=O)NO)S(C)(=O)=O (stereo not shown)
2. C[C@@](CCc1ccc(-c2ccc3c(c2)OCO3)cc1)(C(=O)NO)S(C)(=O)=O
3. CC(CCc1ccc(-c2ccc(NS(C)(=O)=O)cc2)c(F)c1)(C(=O)NO)S(C)(=O)=O (stereo not shown)
4. CC(CCc1ccc(-c2cccc(Cl)c2)cc1)(C(=O)NO)S(C)(=O)=O (stereo not shown)
5. CC(CCc1ccc(-c2ccc(OCCCO)cc2)cc1)(C(=O)NO)S(C)(=O)=O (stereo not shown)

# output
1. 9.73
2. 10.07
3. 8.69
4. 9.44
5. 9.41

For every item in the list below, what is its measured pIC50?
1. C[C@](CCc1ccc(-c2ccc3c(c2)OCCO3)cc1)(C(=O)NO)S(C)(=O)=O
2. CC(CCc1ccc(-c2ccc(C#N)cc2)cc1F)(C(=O)NO)S(C)(=O)=O (stereo not shown)
3. CC(CCc1ccc(-c2ccccc2F)cc1)(C(=O)NO)S(C)(=O)=O (stereo not shown)
4. CC(CCc1ccc(-c2ccc(O)c(F)c2)cc1)(C(=O)NO)S(C)(=O)=O (stereo not shown)

# output
1: 7.84; 2: 9.37; 3: 9.14; 4: 9.47

Look up pIC50 for the entries below, preserving their order.
1. CC(CCc1ccc(COc2cccc(F)c2)cc1)(C(=O)NO)S(C)(=O)=O (stereo not shown)
2. CC(C)Cc1ccc(-c2ccc(CCC(C)(C(=O)NO)S(C)(=O)=O)cc2)cc1 (stereo not shown)
3. CC(=O)c1ccc(-c2ccc(CCC(C)(C(=O)NO)S(C)(=O)=O)cn2)cc1 (stereo not shown)
4. CC(CCc1ccc(-c2cccc(C#N)c2)cc1)(C(=O)NO)S(C)(=O)=O (stereo not shown)
5. CC(CCc1ccc(-c2ccc3c(c2)C(=O)NC3)cc1F)(C(=O)NO)S(C)(=O)=O (stereo not shown)
6. COc1ccc(-c2ccc(CCC(C)(C(=O)NO)S(C)(=O)=O)cc2F)cn1 (stereo not shown)
7. CC(CCc1ccc(-c2cnc3ccccc3c2)cc1F)(C(=O)NO)S(C)(=O)=O (stereo not shown)

# output
1. 8.49
2. 9.45
3. 9.01
4. 9.13
5. 9.20
6. 9.29
7. 9.33
